Experiment: inhibitors of TNFa-induced NFkB p65 translocation, primary screen, imaging, HUVEC, MLSMR starter and 10KST1 sets (AID 438);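 note: compound added about 3h40 before a 20 min TNFalpha stimulation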
Conditions: HUVEC TNFa-induced p65 nuclear translocation; measured here: nuclei count (cytotoxicity indicator), at 2.08 µM
Quick rule for you: cell count at 400 or higher means label 1, lower means label 0.

// below: answered compounds
# Compound, Assigned category
records = [
    ("COc1ccccc1CNC(=O)C1CCCN(S(=O)(=O)c2cccc3cccnc23)C1 (stereo not given)", "label 1"),
    ("O=C(OCCCCN1C(=O)c2ccccc2C1=O)c1n[nH]c2ccccc12", "label 1"),
    ("CCCC(=O)Nc1cccc(NC(=O)CN2CCN(c3ccccc3OC)CC2)c1", "label 1"),
    ("COc1cccc(-c2nnc(NC(=O)c3ccccc3Br)o2)c1", "label 1"),
    ("CCOCCCNC(=O)Cn1cc2c(n1)CCCCC2", "label 1"),
]

Ask: Hi, just wondering whether Oc1ccccc1-c1nnc(COc2ccc(Cl)cc2Cl)o1 shows cell count of 400 or higher.
Result: label 1

Ask: And for COCCn1nnnc1CN(CCCN1CCOCC1)Cc1cc2c(C)ccc(C)c2[nH]c1=O ?
Result: label 1

Ask: Same again, this time with COc1ccc(OCCCC(=O)Nc2nncs2)cc1
Result: label 0

Ask: Ok, now CCn1c(C)nc2cc(C(=O)OCCC(F)(F)F)ccc21
Result: label 1

Ask: Field entry: CCC(C)(C)n1nnnc1C(c1cc2cc(C)ccc2[nH]c1=O)N1CCCC1 (stereo not given)
Result: label 0

----------
Target: Alpha-2C adrenergic receptor (Homo sapiens) (UniProt P18825)
Sequence (P18825 whole entry, looked up): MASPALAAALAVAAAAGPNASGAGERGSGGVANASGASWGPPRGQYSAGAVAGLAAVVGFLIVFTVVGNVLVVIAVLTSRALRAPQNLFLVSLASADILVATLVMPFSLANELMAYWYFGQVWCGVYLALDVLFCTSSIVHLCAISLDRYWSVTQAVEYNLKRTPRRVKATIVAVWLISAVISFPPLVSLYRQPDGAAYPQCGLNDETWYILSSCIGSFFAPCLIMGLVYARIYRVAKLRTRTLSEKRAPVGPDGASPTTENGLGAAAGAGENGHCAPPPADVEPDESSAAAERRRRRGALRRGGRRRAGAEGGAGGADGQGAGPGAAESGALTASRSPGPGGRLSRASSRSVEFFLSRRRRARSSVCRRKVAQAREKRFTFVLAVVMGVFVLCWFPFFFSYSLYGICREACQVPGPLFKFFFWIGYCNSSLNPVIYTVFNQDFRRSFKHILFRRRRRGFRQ
Assay: compounds altering alpha2C-coupled GIRK flux – cell-based, HEK293 alpha2C/GIRK1/2, thallium flux, primary screen (AID 624);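 note: slope of fluorescence ratio to pre-addition baseline per second over 15 to 24 s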
Settings: thallium flux BTC fluorescence, at 10 µM, actives lie on both sides
Classify by measured slope: Criterion met if it is equal to or exceeds 0.005, Criterion not met if it is smaller.

Ask: Could you please find out whether COc1ccc(C(C(C(=O)c2ccco2)N2CCOCC2)N2CCOCC2)cc1 (stereo unspecified) has slope that meets 0.005 or exceeds it?
Result: Criterion met

Ask: Consider next the compound Cc1cc(C(=O)CN2C(=O)c3ccccc3C2=O)c(C)n1Cc1cccs1 in the same way.
Result: Criterion not met

----------
Assay: inhibitors of TNFa-induced NFkB p65 translocation, primary screen, imaging, HUVEC, MLSMR starter and 10KST1 sets (AID 438);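 note: compound added about 3h40 before a 20 min TNFalpha stimulation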
Conditions: HUVEC TNFa-induced p65 nuclear translocation; measured here: nuclei count (cytotoxicity indicator), at 2.08 µM
// class assignment uses cell count with these ranges: lowest = under 500, middle = from 500 up to 700, highest = 700 and over

# Compound, Assigned category
rows = [
    ("COCCn1c(C)cc(C(=O)CSc2nc3ccccc3c(=O)[nH]2)c1C", "lowest"),
    ("Cc1cccn2c(=O)c3cc(C(=O)NC4CCCC4)c(=N)n(C4CCCC4)c3nc12", "highest"),
]

Ask: Returns: class label. Input: C/C=C(\C)c1nnc(NC(=O)OCC)s1
Result: highest

Ask: Now try CCC(C)NC(=O)c1ccccc1NC(=O)C(C)N(c1ccccc1)S(C)(=O)=O (stereo unspecified) .
Result: middle

Ask: Item: C=CCn1c(=O)n(CCOC)c(=O)c2sc3ccccc3c21
Result: highest

Ask: What do you get for CN(Cc1cccs1)C(=O)CCc1ccc(S(=O)(=O)N2CCOCC2)cc1 ?
Result: lowest

Ask: Then what about the compound O=S(=O)(c1ccc(S(=O)(=O)N2CCN3CCCC3C2)cc1)N1CCCC1 (stereo unspecified) ?
Result: middle
